Test system: CAL-85-1
Method notes: normalised viability (% of control), CellTiter-Blue; higher = more viable cells (about 100 = DMSO control)
Applied conditions: 100 nM; incubation time: 72 h
Readout kind: normalised viability (%)
# value in %; strip the unit string

Example cases with answers are listed next.
Molecule	normalised viability / %
CCC1=C[C@@H]2CN(C1)Cc1c([nH]c3ccccc13)[C@@](C(=O)OC)(c1cc3c(cc1OC)N(C)[C@H]1[C@@](O)(C(=O)OC)[C@H](OC(C)=O)[C@]4(CC)C=CCN5CC[C@]31[C@@H]54)C2 [Vinorelbine]	34.5
CCC1(c2ccc(N)cc2)CCC(=O)NC1=O (stereo unspecified) [Aminoglutethimide]	103
COc1cc([C@@H]2c3cc4c(cc3[C@@H](O[C@@H]3O[C@@H]5CO[C@@H](C)O[C@H]5[C@H](O)[C@H]3O)[C@H]3COC(=O)[C@H]23)OCO4)cc(OC)c1O [Etoposide]	102

Supply measured normalised viability of C#Cc1cccc(Nc2ncnc3cc(OCCOC)c(OCCOC)cc23)c1 [Erlotinib] in your reply.
88

Report measured normalised viability; entry is Cn1c(CCCC(=O)O)nc2cc(N(CCCl)CCCl)ccc21 [Bendamustine]
100

Give a short answer stating reported normalised viability for CN(C)/N=N/c1[nH]cnc1C(N)=O [Dacarbazine] .
90.5
